# tested target: UniProt:P30542
# Sequence (P30542 whole entry): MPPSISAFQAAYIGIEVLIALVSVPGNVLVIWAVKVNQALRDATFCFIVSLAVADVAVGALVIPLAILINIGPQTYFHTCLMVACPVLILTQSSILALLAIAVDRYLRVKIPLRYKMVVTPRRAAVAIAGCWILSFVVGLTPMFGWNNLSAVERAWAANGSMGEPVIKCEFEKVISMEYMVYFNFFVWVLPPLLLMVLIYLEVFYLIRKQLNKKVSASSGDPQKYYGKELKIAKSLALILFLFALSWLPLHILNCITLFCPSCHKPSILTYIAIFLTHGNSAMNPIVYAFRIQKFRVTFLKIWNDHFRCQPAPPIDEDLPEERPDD
# experimental protocol: FLIPR inhibition assay in hADORA1/CHO (hA1 expressing) cells
# Type: cell-based
# measurement conditions: hADORA1/CHO cells, FLIPR calcium, adenosine stimulation; read-out: cAMP & FLIPR IC50 (nM) hA1
# Experimental: hADORA1/CHO (hA1 expressing) cells (Genscript) were plated at 1×10^4 cells/well into 384-well polystyrene plates one day before starting the experiment. On the day of experiment, the supernatant was discard and replaced with 40 µL of dye (FLIPR calcium 5 Assay Kit) per well and the plates were incubated for 60 mins at 37° C. plus 5% CO2. Then testing compounds were added at different concentrations for FLIPR™ inhibition assay. […]
Field: class. Source value: IC50. Ranges: A = under 10 nM, B = from 10 nM up to 100 nM, C = 100 nM and over

Worked examples follow.
{"compound": "Cc1nccc(-c2c(-c3ccc(F)cc3)nc(N)n3nc(Cc4c(F)cccc4F)nc23)c1C [Example 16]", "class label": "C"}
{"compound": "Cc1cc(-c2c(-c3ccc(F)cc3)nc(N)n3nc(Cc4nccs4)nc23)ccn1 [Example 11]", "class label": "A"}
{"compound": "Cc1cnc2ccc(-c3c(N4CCOCC4C)nc(N)n4nc(Cc5ncccc5F)nc34)cn12 (single isomer, unassigned; isomer 2) [Example 113-2]", "class label": "C"}
{"compound": "COCCc1nc2c(-c3ccc4ncc(C)n4c3)c(-c3ccc(F)cc3)nc(N)n2n1 [Example 114]", "class label": "A"}
{"compound": "Cn1cc(-c2c(-c3ccccn3)nc(N)n3nc(Cc4c(F)cccc4F)nc23)ccc1=O [Example 92]", "class label": "B"}
{"compound": "Cn1cc(-c2c(-c3ccc(F)cc3)nc(N)n3nc(Cc4ncccc4F)nc23)ccc1=O [Example 1]", "class label": "A"}

Ask: # bin label for Cn1cc(-c2c(-c3ccc(Cl)cc3)nc(N)n3nc(Cc4ncccc4F)nc23)ccc1=O [Example 56]
Reply: B

Ask: # bin label for Cc1cc(-c2c(-c3ncco3)nc(N)n3nc(Cc4c(F)cccc4F)nc23)cc(N)n1 [Example 81]
Reply: C

Ask: # bin label for Nc1nc(-c2ccc(F)cc2)c(-c2ccc3ncsc3c2)c2nc(Cc3ncccc3F)nn12 [Example 88]
Reply: C

Ask: # bin label for Cc1cc(-c2c(-c3ncco3)nc(N)n3nc(Cc4ncccc4F)nc23)cc(OC(F)F)n1 [Example 87]
Reply: C

Ask: # bin label for Cc1cnc2ccc(-c3c(N4CCC5(COC5)C4)nc(N)n4nc(Cc5ncccc5F)nc34)cn12 [Example 110]
Reply: B

Ask: # bin label for Nc1nc(-c2ccc(F)cc2)c(-c2ccc3nncn3c2)c2nc(Cc3ncccc3F)nn12 [Example 72]
Reply: A

Ask: # bin label for Cn1cc(-c2c(-c3ncco3)nc(N)n3nc(Cc4c(F)cccc4F)nc23)ccc1=O [Example 22]
Reply: B

Ask: # bin label for Cn1cnc2ccc(-c3c(-c4ncco4)nc(N)n4nc(Cc5c(F)cccc5F)nc34)cc21 [Example 91]
Reply: C

Ask: # bin label for Cn1cc(-c2c(-c3cccc(F)c3)nc(N)n3nc(Cc4ncccc4F)nc23)ccc1=O [Example 40]
Reply: B

Ask: # bin label for Cn1nc(-c2c(-c3ccc(F)cc3)nc(N)n3nc(Cc4ncccc4F)nc23)ccc1=O [Example 30]
Reply: B
